- assayed-system: penicillin-binding protein 2a (PBP2a) (Staphylococcus aureus)
- Construct: residues 23-668, pET28a, from mecA of Staphylococcus aureus ATCC 43300
- Sequence (Q7DHH4 entry or part of it): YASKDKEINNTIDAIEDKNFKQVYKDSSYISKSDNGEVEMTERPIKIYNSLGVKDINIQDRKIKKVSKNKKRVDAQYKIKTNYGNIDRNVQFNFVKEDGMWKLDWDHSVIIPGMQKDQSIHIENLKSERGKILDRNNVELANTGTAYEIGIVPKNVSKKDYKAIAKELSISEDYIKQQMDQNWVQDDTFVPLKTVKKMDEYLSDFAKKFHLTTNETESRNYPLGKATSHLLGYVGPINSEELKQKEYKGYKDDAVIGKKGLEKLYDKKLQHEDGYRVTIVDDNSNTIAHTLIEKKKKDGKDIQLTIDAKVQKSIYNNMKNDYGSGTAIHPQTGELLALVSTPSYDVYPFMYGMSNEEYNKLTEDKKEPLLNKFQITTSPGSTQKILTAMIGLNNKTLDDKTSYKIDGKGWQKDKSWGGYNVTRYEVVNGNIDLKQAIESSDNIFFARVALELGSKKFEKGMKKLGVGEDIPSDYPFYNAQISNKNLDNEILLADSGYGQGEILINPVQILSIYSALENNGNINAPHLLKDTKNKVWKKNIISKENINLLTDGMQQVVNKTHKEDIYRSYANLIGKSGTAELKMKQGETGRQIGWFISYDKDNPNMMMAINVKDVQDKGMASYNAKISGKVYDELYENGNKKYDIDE
- assay-comment: microscale thermophoresis (MST) with labelled recombinant PBP2a
readout-kind: pKd
In textbook form, pKd equals minus log to base ten of the concentration in mol/L.

Hey, penicillin-binding protein 2a (PBP2a) (Staphylococcus aureus) data for COC(=O)C1=C[C@]2(C)C[C@@]34CC[C@H]5C(C)(C)C(=O)C=C[C@]5(C)[C@]35OC[C@]14[C@](C)(CC2=O)O5 : pKd came out at 4.74
